- System: Salmonella TA100
- PROTOCOL_DETAILS: Salmonella plate-incorporation mutagenicity assay, strain TA100
- Assay type: cell-based
- STUDY_CONDITIONS: TA100 +S9, Test 3, 2.5 µg/plate; zero-dose 127/118/125
Recorded Rev/plate for the following molecules
MEASUREMENT_TYPE: Rev/plate

[[record]]
molecule = "O=S1(=O)C=Cc2c1ccc1ccc3ccccc3c21 [P[3,4-b]T sulfone, Phenanthro[3,4-b]thiophene sulfone]"
measurement_type = "Rev/plate"
reported_result = "2801/2710"

[[record]]
molecule = "O[C@@H]1C=Cc2c(ccc3ccc4ccsc4c23)[C@H]1O (racemic) [P[4,3-b]T 8,9-diol]"
measurement_type = "Rev/plate"
reported_result = "951/868"

[[record]]
molecule = "O[C@@H]1C=Cc2c(ccc3ccc4ccccc4c23)[C@H]1O (racemic) [B[c]P 3,4-diol]"
measurement_type = "Rev/plate"
reported_result = "848/945"

[[record]]
molecule = "O[C@@H]1C=Cc2c(ccc3ccc4sccc4c23)[C@H]1O (racemic) [P[3,4-b]T 8,9-diol]"
measurement_type = "Rev/plate"
reported_result = "347/430"

